ASSAY_REMARKS: Hematology assays in cynomolgus monkeys (Example 45)
Assay type: in vivo
MEASUREMENT_PARAMETERS: day −5; escalating dose regimen
PARAMETER: hematocrit (%)
Answer in %, number only, no unit symbol.

Example entries and their recorded answers appear below.
SUBSTANCE	VAL
ISIS 416838: MOE gapmer, nucleobases 1018 to 1042 of SEQ ID NO: 1 (Table 6) (antisense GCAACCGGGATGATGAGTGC; MOE gapmer, wing and gap sizes not given here)	42
ISIS 417002: MOE gapmer, nucleobases 1275 to 1318 of SEQ ID NO: 1 (Table 8) (antisense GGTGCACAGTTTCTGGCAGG; MOE gapmer, wing and gap sizes not given here)	45
ISIS 416850: MOE gapmer, nucleobases 1275 to 1318 of SEQ ID NO: 1 (Table 8) (antisense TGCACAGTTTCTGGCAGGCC; MOE gapmer, wing and gap sizes not given here)	43

Ask: Which hematocrit value belongs to ISIS 416864: MOE gapmer, nucleobases 1275 to 1318 of SEQ ID NO: 1 (Table 8) (antisense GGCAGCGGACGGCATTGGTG; MOE gapmer, wing and gap sizes not given here) ?
Reply: 44

Ask: Which hematocrit value belongs to ISIS 416858: MOE gapmer, nucleobases 1275 to 1318 of SEQ ID NO: 1 (Table 8) (antisense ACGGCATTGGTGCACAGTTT; MOE gapmer, wing and gap sizes not given here) ?
Reply: 42

###

MEASUREMENT_PARAMETERS: rat, in vivo, sc, 50 mg/kg
e = 2'-O-(2-methoxyethyl) (MOE); d = 2'-deoxy (DNA)
PARAMETER: MCV
Give only the figure.

SUBSTANCE	MCV
ISIS 416925: MOE gapmer, nucleobases 1275 to 1318 of SEQ ID NO: 1 (Table 8) (antisense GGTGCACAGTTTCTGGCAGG; MOE gapmer, wing and gap sizes not given here)	5
ISIS 416825: 5-10-5 MOE gapmer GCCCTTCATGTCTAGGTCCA (sugars from the 5' end e5 d10 e5, backbone and methylation of C not given here)	4

Ask: Which MCV value belongs to ISIS 416892: 3-14-3 MOE gapmer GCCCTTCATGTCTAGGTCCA (sugars from the 5' end e3 d14 e3, backbone and methylation of C not given here) ?
Reply: 1

Ask: Which MCV value belongs to ISIS 416826: 5-10-5 MOE gapmer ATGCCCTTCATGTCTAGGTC (sugars from the 5' end e5 d10 e5, backbone and methylation of C not given here) ?
Reply: 6

###

Test system: blood coagulation
ASSAY_REMARKS: PT and aPTT assay in cynomolgus monkeys (Example 45)
Type: in vivo
MEASUREMENT_PARAMETERS: day 29; escalating dose regimen; platelet poor plasma
PT ratio (INR): recorded values
Give only the figure.

Example entries and their recorded answers appear below.
SUBSTANCE	PT ratio (INR)
ISIS 416858: MOE gapmer, nucleobases 1275 to 1318 of SEQ ID NO: 1 (Table 8) (antisense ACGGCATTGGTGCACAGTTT; MOE gapmer, wing and gap sizes not given here)	1.08
ISIS 417002: MOE gapmer, nucleobases 1275 to 1318 of SEQ ID NO: 1 (Table 8) (antisense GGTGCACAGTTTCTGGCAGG; MOE gapmer, wing and gap sizes not given here)	1.01
ISIS 416864: MOE gapmer, nucleobases 1275 to 1318 of SEQ ID NO: 1 (Table 8) (antisense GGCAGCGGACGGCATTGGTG; MOE gapmer, wing and gap sizes not given here)	1.06
ISIS 416838: MOE gapmer, nucleobases 1018 to 1042 of SEQ ID NO: 1 (Table 6) (antisense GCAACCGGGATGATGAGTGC; MOE gapmer, wing and gap sizes not given here)	1.03

We now examine a further substance.
Ask: Which PT ratio (INR) value belongs to ISIS 416850: MOE gapmer, nucleobases 1275 to 1318 of SEQ ID NO: 1 (Table 8) (antisense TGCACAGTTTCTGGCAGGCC; MOE gapmer, wing and gap sizes not given here) ?
Reply: 1.03
